Where do the numbers come from? From the supplement of paper PMC6992640.

system: HCI16 (cells of a triple-negative basal-like breast cancer xenograft); test: cell viability (% of vehicle); higher = less cytotoxic; conditions: 10 µM; 72 h;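 note: PDX cells carrying CMV promoter-driven luciferase, viability read as total photon flux per second by IVIS imaging following D-luciferin, vehicle control 0.1% DMSO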
Reported values of cell viability for individual entries
No unit in the answer, please; the number alone is enough.

Below are worked cases with known answers.
COMPOUND	EXPERIMENTAL TARGET	cell viability
CC1(c2nc3c(C(N)=O)cccc3[nH]2)CCCN1 (stereo unspecified)	HCI16	91.1
Cc1cn(C2C=CC(CO)O2)c(=O)[nH]c1=O (stereo unspecified)	HCI16	117
CCC(=C(c1ccccc1)c1ccc(OCCN(C)C)cc1)c1ccccc1.O=C(O)CC(O)(CC(=O)O)C(=O)O [Tamoxifen Citrate]	HCI16	59.7
O=c1cc[nH]c(=S)[nH]1	HCI16	112

response.value for c1ccc2[nH]c(-c3cscn3)nc2c1 (field: cell viability) = 119
